molecular target: K+ATP channel (Rattus norvegicus, UniProt Q09429); test: KATP channel receptor binding assay ([3H]glibenclamide); details: Table 1; 10 μM compound concentration; [3H]glibenclamide 0.1 nM, rat cerebral cortex; read-out: K^+ATP Channel (% Inhibition of Control Specific Binding)
Sequence (Q09429 whole entry): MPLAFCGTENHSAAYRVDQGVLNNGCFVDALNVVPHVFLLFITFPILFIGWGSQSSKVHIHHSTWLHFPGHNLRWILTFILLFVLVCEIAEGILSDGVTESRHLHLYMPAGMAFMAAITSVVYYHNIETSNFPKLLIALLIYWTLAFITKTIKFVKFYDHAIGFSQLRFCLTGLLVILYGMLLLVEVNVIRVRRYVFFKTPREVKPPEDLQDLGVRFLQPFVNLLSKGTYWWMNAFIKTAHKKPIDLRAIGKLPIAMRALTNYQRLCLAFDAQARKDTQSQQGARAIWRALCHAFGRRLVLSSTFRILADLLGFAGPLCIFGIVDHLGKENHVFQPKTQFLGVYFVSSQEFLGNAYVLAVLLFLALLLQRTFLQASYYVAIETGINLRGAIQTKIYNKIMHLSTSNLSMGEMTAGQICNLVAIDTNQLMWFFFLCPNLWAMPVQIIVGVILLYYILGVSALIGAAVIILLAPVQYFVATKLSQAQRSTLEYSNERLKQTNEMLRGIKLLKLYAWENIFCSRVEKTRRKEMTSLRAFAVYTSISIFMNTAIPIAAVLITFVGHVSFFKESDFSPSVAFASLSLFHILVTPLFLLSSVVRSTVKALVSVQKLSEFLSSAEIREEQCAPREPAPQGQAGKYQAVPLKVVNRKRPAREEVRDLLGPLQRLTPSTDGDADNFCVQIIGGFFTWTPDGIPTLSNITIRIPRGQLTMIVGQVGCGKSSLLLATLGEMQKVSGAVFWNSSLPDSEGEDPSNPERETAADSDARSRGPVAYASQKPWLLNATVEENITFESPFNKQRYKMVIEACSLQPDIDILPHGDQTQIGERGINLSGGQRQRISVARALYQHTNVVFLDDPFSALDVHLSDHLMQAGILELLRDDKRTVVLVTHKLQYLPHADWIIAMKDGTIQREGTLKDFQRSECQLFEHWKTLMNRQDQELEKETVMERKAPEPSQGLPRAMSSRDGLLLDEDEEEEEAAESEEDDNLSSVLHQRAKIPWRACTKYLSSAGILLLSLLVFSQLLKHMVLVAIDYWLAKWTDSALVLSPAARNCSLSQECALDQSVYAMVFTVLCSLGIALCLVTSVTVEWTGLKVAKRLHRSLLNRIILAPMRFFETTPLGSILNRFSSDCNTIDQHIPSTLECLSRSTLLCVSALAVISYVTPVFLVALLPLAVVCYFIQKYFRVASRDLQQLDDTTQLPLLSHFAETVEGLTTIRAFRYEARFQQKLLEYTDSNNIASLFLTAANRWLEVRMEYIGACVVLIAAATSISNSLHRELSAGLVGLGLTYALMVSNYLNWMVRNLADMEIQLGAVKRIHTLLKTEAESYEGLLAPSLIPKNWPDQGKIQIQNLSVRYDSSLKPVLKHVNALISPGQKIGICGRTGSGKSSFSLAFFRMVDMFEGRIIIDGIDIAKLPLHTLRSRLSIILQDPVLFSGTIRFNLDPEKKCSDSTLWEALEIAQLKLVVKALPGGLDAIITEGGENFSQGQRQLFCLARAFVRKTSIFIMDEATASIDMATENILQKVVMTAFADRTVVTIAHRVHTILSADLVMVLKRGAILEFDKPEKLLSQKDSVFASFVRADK
Sequence (P70673 whole entry partner): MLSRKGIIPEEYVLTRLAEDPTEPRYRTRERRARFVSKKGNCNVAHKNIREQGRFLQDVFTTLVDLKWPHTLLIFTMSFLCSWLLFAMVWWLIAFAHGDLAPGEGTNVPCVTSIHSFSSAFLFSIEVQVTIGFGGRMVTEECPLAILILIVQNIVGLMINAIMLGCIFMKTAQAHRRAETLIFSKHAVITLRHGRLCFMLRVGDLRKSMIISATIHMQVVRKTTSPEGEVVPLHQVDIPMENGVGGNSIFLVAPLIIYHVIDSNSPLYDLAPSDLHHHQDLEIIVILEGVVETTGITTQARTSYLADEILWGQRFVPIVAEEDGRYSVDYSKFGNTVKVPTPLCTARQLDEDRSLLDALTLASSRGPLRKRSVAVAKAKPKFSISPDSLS
recorded_endpoint: inhibition at 10 µM (%)

> print(dat)
                                   compound                              assay.system  observed.value
1  O=C(Nc1nc(-c2ccccc2)cs1)N1CCN(C(=O)c2cccc(F)c2)CC1  K+ATP channel (Rattus norvegicus, UniProt Q09429)             -22
2  Cc1nc(-c2cccc(NC(=O)N3CCN(C(=O)c4cccc(F)c4)CC3)c2)no1  K+ATP channel (Rattus norvegicus, UniProt Q09429)              16
3  O=C(c1ccccc1)N1CCN(C(=S)Nc2cc(C(F)(F)F)ccc2Cl)CC1 [Compound XI, reference compound]  K+ATP channel (Rattus norvegicus, UniProt Q09429)             -12
4  O=C(Nc1cc(C(F)(F)F)cc(C(F)(F)F)c1)N1CCN(C(=O)c2ccco2)CC1 [Compound I, reference compound]  K+ATP channel (Rattus norvegicus, UniProt Q09429)              -1
5  O=C(Nc1cc(Cl)cc(Cl)c1)N1CCN(C(=O)c2ccco2)CC1 [Compound II, reference compound]  K+ATP channel (Rattus norvegicus, UniProt Q09429)             -17
6  O=C(Nc1cc(C(F)(F)F)ccc1Cl)N1CCN(C(=O)c2ccccc2)CC1 [Compound VIII, reference compound]  K+ATP channel (Rattus norvegicus, UniProt Q09429)              -3
7  O=C(Nc1cc(Cl)cc(Cl)c1)N1CCN(C(=O)c2ccccc2)CC1 [Compound VII, reference compound]  K+ATP channel (Rattus norvegicus, UniProt Q09429)             -10

====

target: human Prostaglandin D Synthase (GST2) (Homo sapiens); construct: the open reading frame of human Prostaglandin D Synthase was amplified from cDNA; made in house; host or cells: E. coli TOP10F'; assay: Homogeneous biochemical assay of human Prostaglandin D Synthase (GST2) based on its glutathion-S-transferase activity (GSH conjugation to monochlorobimane, fluorescence); conditions: given beside the compound name in Examples 1 to 167; read-out: Potency Range (GST2 IC50)
Sequence (O60760 whole entry): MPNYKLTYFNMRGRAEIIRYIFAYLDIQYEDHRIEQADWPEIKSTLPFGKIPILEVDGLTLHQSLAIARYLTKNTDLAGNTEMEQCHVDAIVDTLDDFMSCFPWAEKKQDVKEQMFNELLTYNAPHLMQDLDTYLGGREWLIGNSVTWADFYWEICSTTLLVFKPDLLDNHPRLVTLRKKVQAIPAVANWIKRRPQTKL
Each record here notes measured IC50.
recorded_endpoint: IC50

> print(dat)
                               smiles.input  observed.value
1  CS(=O)(=O)Nc1ccc(NC(=O)N2CCN(C(=O)c3cc(F)ccc3F)CC2)cc1  101 to 1000 nM
2  NC(=O)c1cccc(C(=O)N2CCN(C(=O)Nc3ccc(F)cc3)CC2)c1  101 to 1000 nM
3  O=C(Nc1ccc(-c2cc[nH]n2)cc1)N1CCN(C(=O)c2cccc(F)c2)CC1    11 to 100 nM
4  CN(C)c1ccc(NC(=S)N2CCN(C(=O)c3ccc(F)cc3)CC2)cc1  101 to 1000 nM
5  O=C(Nc1nc(-c2ccccc2)ns1)N1CCN(C(=O)c2cccc(F)c2)CC1    11 to 100 nM
6  CC(C)(C)OC(=O)N1CCN(c2ccc(NC(=O)N3CCN(C(=O)c4cccc(F)c4)CC3)cc2F)CC1    11 to 100 nM
7  CCOC(=O)c1ccc2nc(NC(=O)N3CCN(C(=O)c4cccc(F)c4)CC3)sc2c1    11 to 100 nM
8  N#Cc1cc(NC(=O)N2CCN(C(=O)c3cccc(F)c3)CC2)ccc1F  101 to 1000 nM
